experiment: Acute toxicity on mice, oral; conditions: mouse, in vivo, po
measurement_label: LD50

As a guide, the following entries are already answered.
compound: O=C1CC2(C(=O)N1)C(=O)N1CCOc3cc(F)cc2c31 (centres unmarked)
LD50: > 1000 mg/kg

compound: Cc1cc2c3c(c1)C1(CC(=O)NC1=O)C(=O)N3CCO2 (centres unmarked)
LD50: > 2000 mg/kg

compound: O=C1CC2(C(=O)N1)C(=O)N1CCOc3c(Cl)ccc2c31 (centres unmarked)
LD50: > 2000 mg/kg

compound: O=C1CC2(C(=O)N1)C(=O)N1CCOc3cc(Cl)cc2c31 (centres unmarked)
LD50: > 2000 mg/kg

// below: LD50 requested for another compound
Req: Quick one: LD50 for O=C1CC2(C(=O)N1)C(=O)N1CCOc3c(Cl)c(Cl)cc2c31 (centres unmarked) ?
Resp: > 2000 mg/kg

====

Readings of inhibition at 25 mg/kg for the listed molecules
molecular target: aldose reductase (Rattus norvegicus); construct: partially purified enzyme from rat lens; from tissue; host or cells: rat lens; assay: Inhibitory activity on aldose reductase in vivo (serum of orally dosed rats added to the aldose reductase assay); conditions: oral, serum taken 2 hr after administration, 0.5 ml added to assay, read-out: Inhibition % on aldose reductase in vivo, 2 hr after administration
Write the value in % as a bare number.

molecule: O=C1CC2(C(=O)N1)C(=O)N1CCSc3cccc2c31 (stereo not drawn) [Example 11]
inhibition at 25 mg/kg (%): 72.3

molecule: O=C1NC(=O)[C@@]2(CCOc3ccc(F)cc32)N1 [Sorbinil, reference compound]
inhibition at 25 mg/kg (%): 79.8

molecule: O=C1CC2(C(=O)N1)C(=O)N1CCOc3cc(F)cc2c31 (stereo not drawn) [Example 14]
inhibition at 25 mg/kg (%): 75.1

Req: Quick one: inhibition at 25 mg/kg for O=C1CC2(C(=O)N1)C(=O)N1c3ccccc3Sc3cccc2c31 (stereo not drawn) [Example 6] ?
Resp: 11.8

Req: Same question, O=C1CC2(C(=O)N1)C(=O)N1CCOc3cc(Cl)cc2c31 (stereo not drawn) [Example 8] this time
Resp: 62.5

Req: Same question, O=C1CC2(C(=O)N1)C(=O)N1CCCc3cccc2c31 (stereo not drawn) [Example 1] this time
Resp: 61.2

====

Assay: Acute toxicity on mice, oral
Conditions: mouse, in vivo; oral, fasted ICR mice
Method: Acute toxicity was tested by oral administration with the compounds of this invention in fasted mice (ICR stain).
measurement_label: LD50

Req: Quick one: LD50 for O=C1CC2(C(=O)N1)C(=O)N1c3ccccc3Sc3cccc2c31 (stereo not shown) ?
Resp: > 2000 mg/kg

====

Target: aldose reductase (Rattus norvegicus)
Construct: partially purified enzyme from rat lens; from tissue; host or cells: rat lens
Experiment: Inhibitory activity on aldose reductase in vivo (serum of orally dosed rats added to the aldose reductase assay)
Settings: oral, serum taken 5 hr after administration, 0.5 ml added to assay, read-out: Inhibition % on aldose reductase in vivo, 5 hr after administration
Experimental: Aldose reductase preparation used in this test was partially purified enzyme from rat lens. In order to estimate whether the compounds are available for inhibiting the enzyme in vivo, following preliminary test was carried out. 2 and 5 hours later, blood samples were taken from the rats. A 0.5 ml of serum, instead of the compound, was added to the assay system described in Experiment 1.
measurement_label: inhibition at 25 mg/kg (%)
Write the value in % as a bare number.

As a guide, the following entries are already answered.
molecule: O=C1CC2(C(=O)N1)C(=O)N1c3ccccc3Sc3cccc2c31 (centres unmarked)
quantitative_readout: 13.4

molecule: O=C1CC2(C(=O)N1)C(=O)N1CCOc3cc(F)cc2c31 (centres unmarked)
quantitative_readout: 75.8

molecule: CC1CCc2cccc3c2N1C(=O)C31CC(=O)NC1=O (centres unmarked)
quantitative_readout: 42.6

molecule: O=C1CC2(C(=O)N1)C(=O)N1CCCc3cccc2c31 (centres unmarked)
quantitative_readout: 49.8

// below: inhibition at 25 mg/kg requested for another molecule
Req: Quick one: inhibition at 25 mg/kg for CC1CCc2cc(Cl)cc3c2N1C(=O)C31CC(=O)NC1=O (centres unmarked) ?
Resp: 70.2
